Cited source: patent EP3705478B1

# method-summary: Test 6: Test of Plasma Protein Binding Rate (equilibrium dialysis), human plasma
# Format: in vitro ADME
# applied-conditions: equilibrium dialysis at 37°C for 4 hours, read-out: % Unbound of human plasma sample in Test 6
Each item that follows carries a reported fraction unbound at 4 h, 2 µM.
test-readout: fraction unbound at 4 h, 2 µM

- compound: "C=CC(=O)Nc1cc(Nc2ncnc(N3CC(C)(C)c4ncccc43)n2)c(OC)cc1N(C)CCN(C)C"
  measured: 0.107
- compound: "C=CC(=O)Nc1cc(Nc2nccc(-c3cn(C)c4ccccc34)n2)c(OC)cc1N(C)CCN(C)C [Osimertinib (AZD9291), Osimertinib, reference compound]"
  measured: 0.025
